target: androgen receptor (AR) (Homo sapiens, UniProt P10275, T878A); assay: eGFP cellular AR transcription assay (LNCaP eGFP cells, LN-ARR2PB-eGFP); conditions: LNCaP (T877A AR)
Sequence (P10275 whole entry T878A): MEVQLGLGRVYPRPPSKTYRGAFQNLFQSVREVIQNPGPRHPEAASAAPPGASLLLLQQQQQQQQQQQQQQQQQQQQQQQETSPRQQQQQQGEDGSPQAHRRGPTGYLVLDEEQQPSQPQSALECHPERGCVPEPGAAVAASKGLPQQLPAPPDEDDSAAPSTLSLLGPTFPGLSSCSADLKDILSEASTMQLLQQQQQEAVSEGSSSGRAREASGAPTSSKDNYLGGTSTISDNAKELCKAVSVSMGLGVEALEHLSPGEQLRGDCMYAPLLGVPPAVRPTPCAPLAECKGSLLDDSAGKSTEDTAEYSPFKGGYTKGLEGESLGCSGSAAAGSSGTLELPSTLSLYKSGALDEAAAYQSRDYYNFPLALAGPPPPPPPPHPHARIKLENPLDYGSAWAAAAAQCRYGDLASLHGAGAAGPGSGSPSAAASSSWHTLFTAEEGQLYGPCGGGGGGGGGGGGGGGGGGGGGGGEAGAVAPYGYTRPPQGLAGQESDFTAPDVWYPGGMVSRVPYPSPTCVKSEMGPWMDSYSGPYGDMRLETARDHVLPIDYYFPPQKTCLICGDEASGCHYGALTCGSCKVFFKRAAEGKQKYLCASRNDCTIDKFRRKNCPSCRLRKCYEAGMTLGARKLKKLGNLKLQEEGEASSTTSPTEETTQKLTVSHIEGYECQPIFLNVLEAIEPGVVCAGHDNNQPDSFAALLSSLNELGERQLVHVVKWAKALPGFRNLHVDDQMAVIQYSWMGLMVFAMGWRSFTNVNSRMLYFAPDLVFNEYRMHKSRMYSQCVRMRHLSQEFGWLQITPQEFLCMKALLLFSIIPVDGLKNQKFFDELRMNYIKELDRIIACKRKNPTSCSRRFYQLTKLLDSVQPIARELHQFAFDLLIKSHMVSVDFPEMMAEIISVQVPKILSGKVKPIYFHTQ
PARAMETER: anti-AR activity (AR transcriptional inhibition) in words

• c1cncc(-c2csc(N3CCOCC3)n2)c1 = maintained good potency
• c1cc(-c2csc(N3CCOCC3)n2)ccn1 = maintained good potency
• c1ccc(-c2csc(N3CCOCC3)n2)nc1 = maintained good potency
• c1cc(-c2csc(N3CCOCC3)n2)cs1 = maintained good potency

* * *

Entries and their inhibition at 3 µM values follow.
target: androgen receptor (AR) (Homo sapiens, UniProt P10275, T878A); test: eGFP cellular AR transcription assay (LNCaP eGFP cells, LN-ARR2PB-eGFP); conditions: LNCaP, read-out: % Inhibition (3 μM)
Kindly answer with a numeric value in %, unit omitted.

Answered cases to consult:
* Oc1cccc2ccc(N3CCOCC3)nc12 | 79
* Nc1ccc2nc(-c3cccc(O)c3)sc2c1 | 109
* NC(=S)NN=C(c1ccccc1)c1ccccc1 | 46.4
* Fc1ccc(-c2csc(-c3ccncc3)n2)cc1 | 83.3
* COc1c(-c2csc(N3CCOCC3)n2)ccc(F)c1F | 107

Looking up c1ccc2c(N3CCOCC3)nccc2c1 , I see its inhibition at 3 µM listed as 9

Looking up Oc1c(F)cccc1-c1csc(N2CCOCC2)n1 , I see its inhibition at 3 µM listed as 97.4

Looking up c1ccc(-c2ccc3ccccc3n2)cc1 , I see its inhibition at 3 µM listed as 80.2

Looking up CC(=O)c1ccc(-c2ccccc2)s1 , I see its inhibition at 3 µM listed as 131

Looking up c1cncc(-c2csc(N3CCOCC3)n2)c1 , I see its inhibition at 3 µM listed as 81

Looking up c1ccc2sc(N3CCOCC3)nc2c1 , I see its inhibition at 3 µM listed as 31.2

Looking up C[C@@H]1C(=O)N(c2ccccc2)C2C=CC=CC21 (some centres unmarked) , I see its inhibition at 3 µM listed as 65.4
